system: M14 melanoma; assay: NCI tumour cell line growth inhibition, 48 h
reported-metric: TGI (µM)
One number for each entry, in µM.

CC1=NN(c2cccc(Cl)c2)C2(C1)SCC(=O)N2c1nc2ccccc2s1 (stereo not given) :: 86.5

Return reported TGI. Input compound: `O=C1O[C@H](COC(=O)c2ccccc2)[C@@H](OC(=O)c2ccccc2)C=C1OC(=O)c1ccccc1`
31.9

----------
tested on: EKVX NSCLC; experiment: NCI tumour cell line growth inhibition, 48 h
reported-metric: TGI

As a guide, the following entries are already answered.
Cc1cc(NS(=O)(=O)c2ccc(NC(=O)c3cccc4c(NNc5ccc(S(N)(=O)=O)cc5)c5ccccc5nc34)cc2)no1 :: > 100 µM
Cc1ccc(C(=O)NC(C)C)cc1N=NN(C)C :: > 100 µM
CC(=O)O[C@@H]1CC2[C@@H](CCC3Cc4nc5c(nc4C[C@@]32C)CC2CC[C@@H]3C(CC[C@@]4(C)C3CC[C@@H]4C(C)CCCC(C)C)[C@@]2(C)C5)C2C[C@@H]3OC4(CCC(C)CO4)C(C)[C@@H]3[C@]21C (stereo partly drawn) :: > 100 µM

# per-item lookup of TGI; items listed below
1. O=C(Nn1c2c(sc1=NC1CC1)C(=O)c1ccccc1C2=O)c1cc2ccc1CCc1ccc(cc1)CC2
2. CCN(CC)CCNc1ccc2nnn3c4ccc(OC(C)=O)cc4c(=O)c1c23

1. 12.5 µM
2. 19.3 µM

# per-item lookup of TGI; items listed below
1. CCOC(=O)C1CCCC1S(=O)(=O)c1ccc(C)cc1 (stereo not drawn)
2. OC(C1CCCC1=N/N=C1/CCCC1C(O)(C(F)(F)Cl)C(F)(F)Cl)(C(F)(F)Cl)C(F)(F)Cl (stereo not drawn)

1. > 100 µM
2. > 10 µM

Return reported TGI. Input compound: COC(=O)C1=C2Nc3ccccc3C23CCN2C(O)C4(CC5CC67CCOC6CCN6CCC8(c9cccc(OC)c9N(C4)C58O)C67)C4OCCC4(C1)C23 (stereo not drawn)
> 100 µM

Reference source for all entries: PubChem BioAssay (NCI)
